For each record, write down the corresponding microsomal CLint.
assay: Intrinsic clearance in human liver microsomes assessed per mg protein; format: ADME, Microsome; conditions: read-out: CLH
Write the value in µL/min/mg as a bare number.

Q: Tell me its microsomal CLint given CN1Cc2cc(Cl)ccc2-n2c(nnc2[C@H]2CC[C@@]3(CC2)OCc2ccccc23)C1 as the entry.
Result: 72

Q: Tell me its microsomal CLint given CN1Cc2cc(Cl)ccc2-n2c(nnc2N2CCC3(CC2)SCc2ccccc23)C1 as the entry.
Result: 24

Q: Tell me its microsomal CLint given CN1Cc2cc(Cl)ccc2-n2c(nnc2[C@H]2CC[C@]3(CC2)OCc2ccccc23)C1 as the entry.
Result: 10

Q: Tell me its microsomal CLint given CN1Cc2cc(Cl)ccc2-n2c(nnc2N2CCC3(CC2)COCc2ccccc23)C1 as the entry.
Result: 22
